target: Cyclic GMP-AMP synthase (Homo sapiens, UniProt Q8N884); experiment: Inhibition of recombinant His6-SUMO tagged human CGAS expressed in Escherichia coli BL21/pLys cells incubated for 20 mins by Kinase Glo chemiluminescence assay
Sequence (Q8N884 whole entry): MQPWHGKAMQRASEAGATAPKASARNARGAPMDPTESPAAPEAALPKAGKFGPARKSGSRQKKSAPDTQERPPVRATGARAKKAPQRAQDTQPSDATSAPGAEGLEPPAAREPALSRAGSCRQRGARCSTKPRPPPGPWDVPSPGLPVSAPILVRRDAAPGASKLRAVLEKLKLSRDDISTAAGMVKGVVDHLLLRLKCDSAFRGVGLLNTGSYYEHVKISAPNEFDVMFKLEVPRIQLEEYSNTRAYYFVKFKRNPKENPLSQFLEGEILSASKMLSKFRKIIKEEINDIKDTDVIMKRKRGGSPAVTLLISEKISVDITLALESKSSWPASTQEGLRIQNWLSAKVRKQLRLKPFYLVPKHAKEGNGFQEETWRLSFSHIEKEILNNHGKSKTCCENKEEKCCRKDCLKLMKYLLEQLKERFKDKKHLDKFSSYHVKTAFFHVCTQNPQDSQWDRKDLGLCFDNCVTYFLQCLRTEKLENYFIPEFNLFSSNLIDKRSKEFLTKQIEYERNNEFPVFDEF

compound	system_tested	IC50
CN1C(=O)S/C(=C\c2cc(OCc3cncc(N)c3)c(O)cc2Br)C1=O	Cyclic GMP-AMP synthase (Homo sapiens, UniProt Q8N884)	≥ 10 µM
Cc1ncc(C(C)Oc2cc(/C=C3\SC(=O)N(C)C3=O)c(Br)cc2O)cn1 (stereo not given)	Cyclic GMP-AMP synthase (Homo sapiens, UniProt Q8N884)	≥ 10 µM
CN1C(=O)S/C(=C\c2cc(OCc3ccn(Cc4ccccc4)c(=O)c3)c(O)cc2Br)C1=O	Cyclic GMP-AMP synthase (Homo sapiens, UniProt Q8N884)	≥ 10 µM
CN1C(=O)S/C(=C\c2cc(OCc3cnc[nH]3)c(O)cc2Br)C1=O	Cyclic GMP-AMP synthase (Homo sapiens, UniProt Q8N884)	≥ 10 µM
O=C1/C(=C/c2cc(OCc3cnc(NCc4ccccn4)nc3)c(O)cc2Br)Sc2ncccc21	Cyclic GMP-AMP synthase (Homo sapiens, UniProt Q8N884)	≤ 0.5 µM
COCCNc1ncc(COc2cc(/C=C3\Sc4ncccc4C3=O)c(Br)cc2O)cn1	Cyclic GMP-AMP synthase (Homo sapiens, UniProt Q8N884)	≤ 0.5 µM
CC(C)Nc1ncc(COc2cc(/C=C3\SC(=O)N(C)C3=O)c(Br)cc2O)cn1	Cyclic GMP-AMP synthase (Homo sapiens, UniProt Q8N884)	≥ 10 µM
CN1C(=O)S/C(=C\c2cc(OCc3cccc4cnccc34)c(O)cc2Br)C1=O	Cyclic GMP-AMP synthase (Homo sapiens, UniProt Q8N884)	≥ 10 µM
CSc1ncc(COc2cc(/C=C3\SC(=O)N(C)C3=O)c(Br)cc2O)cn1	Cyclic GMP-AMP synthase (Homo sapiens, UniProt Q8N884)	≥ 10 µM
CN1C(=O)S/C(=C\c2cc(OCc3cnc(NC4CC4)nc3)c(O)cc2Br)C1=O	Cyclic GMP-AMP synthase (Homo sapiens, UniProt Q8N884)	0.5 to 10 µM

From: ChEMBL document CHEMBL4418308
